pIC50: −log10 of the molar value.
# collection of pIC50 values tested on UniProt Q8IYT8
# Sequence (Q8IYT8 with tags, fused parts or gaps): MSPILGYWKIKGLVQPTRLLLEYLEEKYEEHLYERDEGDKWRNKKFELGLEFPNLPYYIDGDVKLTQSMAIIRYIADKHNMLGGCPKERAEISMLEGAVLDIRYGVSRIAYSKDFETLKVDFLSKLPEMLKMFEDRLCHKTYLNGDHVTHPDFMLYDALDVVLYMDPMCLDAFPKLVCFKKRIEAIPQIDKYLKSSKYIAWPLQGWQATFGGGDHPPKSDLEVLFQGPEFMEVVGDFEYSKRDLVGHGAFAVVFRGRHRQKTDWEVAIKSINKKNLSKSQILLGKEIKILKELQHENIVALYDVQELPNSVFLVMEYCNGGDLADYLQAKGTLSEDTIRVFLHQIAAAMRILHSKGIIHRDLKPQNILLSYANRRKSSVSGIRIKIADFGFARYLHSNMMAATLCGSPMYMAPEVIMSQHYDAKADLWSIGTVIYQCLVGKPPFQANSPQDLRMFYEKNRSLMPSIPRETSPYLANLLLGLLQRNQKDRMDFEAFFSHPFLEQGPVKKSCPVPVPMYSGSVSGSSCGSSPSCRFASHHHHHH

Some solved entries appear below for comparison.
compound	recorded.result
CC/C(Nc1cnn(C(C)C)c1)=C1/C(=O)Nc2ncc(C(=O)NCC(C)(C)F)cc21 [Example 170]	6.30 to 7.00
CC/C(Nc1cnn(C(C)C)c1)=C1/C(=O)Nc2ccc(C(=O)NCC(C)(C)F)cc21 [Example 135]	7.00 to 8.00
CC/C(Nc1cnn2c1CCC2)=C1/C(=O)Nc2ccc(C(=O)NCC(F)(F)F)cc21 [Example 121]	< 6.30
CC/C(Nc1cnn(C(C)C)c1)=C1/C(=O)Nc2ccc(C(=O)NCCC#N)cc21 [Example 127]	7.00 to 8.00
CC/C(Nc1cnn(C(C)C)c1)=C1/C(=O)Nc2ccc(C(=O)NCCN3CCC3)cc21 [Example 162]	< 6.30

Now let's try a different one.
Query block: // lookup pIC50 for CC/C(Nc1ccc(N2CC3CC(C2)N3C)cc1)=C1/C(=O)Nc2ccc(C(=O)NCC(F)(F)F)cc21 [Example 60]
Result block: 7.00 to 8.00
